assay: in vitro; details: human, hela cells, % viability

molecule | viability at 28.5 h, 10 µM, %
COc1ccc([C@@]23CC[C@@H](NC(=O)Nc4ccc(F)c(F)c4)C[C@@H]2N(C)CC3)cc1C#N [CBK067952T] | 107
Cc1nc(Nc2cccc(C3CCCN3C(=O)COc3ccc(F)cc3)n2)sc1C (stereo not drawn) [CBK286019] | 87
CCNC(=O)NC[C@H]1C[C@@H]2CCN1C[C@@H]2c1cc(-c2ccc(F)cc2)nn1C [CBK289110] | 88
Cc1cc2nc(NC(=N)N)[nH]c2cc1C [CBK003532] | 93.5
O=C(O)c1[nH]c2ccccc2c1NS(=O)(=O)c1cc(F)c(Br)cc1F [CBK049885] | 62.8
CC(NS(=O)(=O)c1ccccc1)C(=O)Nc1ccc(S(N)(=O)=O)cc1 (stereo not drawn) [CBK266929] | 110
COc1ccc(OCC(O)Cn2c(CCCO)nc3ccccc32)cc1 (stereo not drawn) [CBK305579] | 101
CCCCOC(=O)c1ccccc1NC(=O)NCCc1cccs1 [CBK043573] | 93.5
O=C(NCCn1c(C(F)(F)F)cc(=O)c2cccc(F)c21)C1CC1 [CBK284807] | 85.5
CC(C)(C)OC(=O)N1CCN(CCCOC2(C)SC(NC3CC4CCC3C4)=NC2=O)CC1 (stereo not drawn) [CBK115612] | 95.9
N#Cc1ccc(NC(=O)c2ccc(-n3cnnc3)cc2Cl)cc1 [CBK269758] | 87.2
Cc1noc(C)c1CC(=O)NCC(C)(C)N1CCCCC1 [CBK281863] | 90.3
COc1nccnc1OC1CCN(Cc2ccc(C(F)(F)F)cc2)CC1 [CBK084243] | 79.3
CC(C)[C@@H](CO)Nc1nc(-c2occc2C=O)cnc1N [CBK063733] | 102
FC(F)(F)c1ccnc(SCc2ccc(Cl)c(Cl)c2)n1 [CBK103723] | 85.6
CCCN1CCC(CNC(=O)c2cc(C3CC3)nn2C)CC1 [CBK282536] | 101
Cc1noc(C)c1C(=O)N(C)Cc1cc(-c2ccncc2)no1 [CBK306677] | 102
O=C(O)CCc1ccc(-c2cccs2)n1-c1ccc(Cl)c(Cl)c1 [CBK264797] | 88.7

====

Listing of entries alongside the reported viability at 28.5 h, 10 µM.
assay: in vitro; conditions: human, hela cells, % viability
quantityKind: viability at 28.5 h, 10 µM (%)

compound | resultUnits | reportedResult
O=C1COc2ccccc2CCCCC2(CCCN(C(=O)CN3CCCC3=O)C2)CN1 (stereo not shown) [CBK291992] | % | 105
CC12CCC(C(=O)O)(c3nc4c(ccc5ncccc54)nc31)C2(C)C (stereo not shown) [CBK269470] | % | 91.1
CC(C)N1CCCC(CNC(=O)C2Cc3cc(Cl)ccc3O2)C1 (stereo not shown) [CBK282686] | % | 92.8
Cc1cccc(Cn2cnc(NC(=O)COc3ccc([N+](=O)[O-])c(C)c3)n2)c1 [CBK268177] | % | 118
O=C(c1cc(S(=O)(=O)NCc2ccco2)c(Cl)cc1Cl)N1CCCC1 [CBK306076] | % | 87.8
O=C(Nc1cccc(OC(=O)c2cc(S(=O)(=O)N3CCCCC3)ccc2Cl)c1)c1ccco1 [CBK262186] | % | 110
O=C(CCNS(=O)(=O)c1ccc(Cl)cc1)N1CCN(Cc2ccccc2)CC1 [CBK269405] | % | 101
CC(C)[C@H]1CN(Cc2ccco2)CCN1C(=O)c1cscn1 [CBK285490] | % | 99.6
COc1ccc2[nH]cc(CC(=O)N3CCCC4(CCN(Cc5ccccc5)C4)C3)c2c1 (stereo not shown) [CBK136883] | % | 93.5
Cc1ccc2c(c1)c(NS(C)(=O)=O)nn2Cc1ccc(C#N)cc1 [CBK048643] | % | 94.2
CC(C)OC(=O)c1nnn(-c2nonc2N)c1CN1CCCCCC1 [CBK027601] | % | 94
CCNc1cccnc1N(CC)C1CCN(C(=O)c2cc3cc4c(cc3[nH]2)OCO4)CC1 [CBK016815] | % | 111
Cc1ccc(-c2ncc(OCc3cccs3)nc2N)cc1C [CBK145146] | % | 101
CCOc1ccc(-n2c(C)cc(C(=O)NS(=O)(=O)c3ccc(C)cc3)c2C)cc1 [CBK296084] | % | 90.1
Cc1c(C(=O)O[C@H]2C[C@@H](c3ccc(F)cc3)N(C)C2=O)cnn1C [CBK283616] | % | 103
Cc1cccc(-c2csc3c(=O)[nH]c(N4CCC(C(=O)NCc5cccnc5)CC4)nc23)c1 [CBK215624] | % | 86.8
O=S(=O)(Nc1cccc2[nH]ccc12)c1ccc(Br)cc1F [CBK153547] | % | 80.6
O=C(O)c1cc(C(=O)O)n(Cc2ccc(Cl)cc2Cl)n1 [CBK268283] | % | 103
CC(C)(C)C(=O)N1CCC(n2nc(-c3cccs3)oc2=O)CC1 [CBK282423] | % | 88
